Taken from ChEMBL document CHEMBL1141674.

system: Porphyromonas gingivalis; test: Antimicrobial activity against Porphyromonas gingivalis ATCC 33277 assessed as bacterial growth at 15.6 ug/ml after 4 hrs by XTT assay relative to control; assay type: functional; conditions: in the assay text read “after 48 hrs by absorbance at 660 nm” for “after 4 hrs by XTT assay”
experimental.endpoint: Activity (%)

{"compound": "COc1cc(/C=C/C(=O)OC2=CC(=O)c3ccccc3C2=O)ccc1OC/C=C(\\C)CCC=C(C)C", "readout.unit": "%", "recorded.result": 105}
{"compound": "COc1cc(/C=C/C(=O)Oc2ccccc2OC)ccc1OC/C=C(\\C)CCC=C(C)C", "readout.unit": "%", "recorded.result": 22}
{"compound": "COC(=O)c1ccc(OC(=O)/C=C/c2ccc(OC/C=C(\\C)CCC=C(C)C)c(OC)c2)c(OC)c1", "readout.unit": "%", "recorded.result": 76}
{"compound": "Oc1ccc(O)cc1 [HYDROQUINONE]", "readout.unit": "%", "recorded.result": 15}
{"compound": "O=C1C=C(O)C(=O)c2ccccc21", "readout.unit": "%", "recorded.result": 92}
